Listed here are molecules together with their documented inhibition at 10 µM.
System: MDA-MB-468
ASSAY_COMMENT: NCI one-dose SRB anti-proliferative screen
Assay type: cell-based
TEST_SETTINGS: Homo sapiens; MDA-MB-468 (Breast Cancer), NCI one dose 10 µM; read-out: Cell growth inhibition %
Response body: numeric value in %, unit text excluded.

Example cases with answers are listed next.
INSERT INTO assay_data (query_smiles, measured_parameter, data_value) VALUES
  ('O=C(CSc1nnc(-c2ccc3[nH]c(-c4ccc(Cl)cc4)nc3c2)o1)Nc1ccc(C(=O)/C=C/c2ccc(Cl)cc2)cc1', 'inhibition at 10 µM', 0),
  ('COc1cc(-c2nc3cc(-c4nnc(SCC(=O)Nc5ccc(C(=O)/C=C/c6ccccc6)cc5)o4)ccc3[nH]2)cc(OC)c1OC', 'inhibition at 10 µM', 0),
  ('COc1cc(-c2nc3cc(-c4nnc(SCC(=O)Nc5ccc(C(=O)/C=C/c6ccc(Cl)cc6)cc5)o4)ccc3[nH]2)cc(OC)c1OC', 'inhibition at 10 µM', 6.96);

*Q* So what's the measured inhibition at 10 µM for this one? `COc1ccc(/C=C/C(=O)c2ccc(NC(=O)CSc3nnc(-c4ccc5[nH]c(-c6ccc(Cl)cc6)nc5c4)o3)cc2)cc1`
*A* 0

*Q* So what's the measured inhibition at 10 µM for this one? `COc1ccc(-c2nc3cc(-c4nnc(SCC(=O)Nc5ccc(C(=O)/C=C/c6ccc(Cl)cc6)cc5)o4)ccc3[nH]2)cc1OC`
*A* 0

*Q* So what's the measured inhibition at 10 µM for this one? `COc1ccc(-c2nc3cc(-c4nnc(SCC(=O)Nc5ccc(C(=O)/C=C/c6ccccc6)cc5)o4)ccc3[nH]2)cc1OC`
*A* 0

*Q* So what's the measured inhibition at 10 µM for this one? `O=C(CSc1nnc(-c2ccc3[nH]c(-c4ccc(Cl)cc4)nc3c2)o1)Nc1ccc(C(=O)/C=C/c2ccccc2)cc1`
*A* 0

*Q* So what's the measured inhibition at 10 µM for this one? `COc1ccc(/C=C/C(=O)c2ccc(NC(=O)CSc3nnc(-c4ccc5[nH]c(-c6ccc(OC)c(OC)c6)nc5c4)o3)cc2)cc1`
*A* 0
